The values you see were collected from PubChem BioAssay (NCATS).

experiment: BET inhibitor-based combinations targeting novel dependencies in MECOM-rearranged (r) AML: HNT-34 cell line (AID 2202234); conditions: HNT-34 AML viability, CellTiter-Glo luminescence, 48 h; series mostly up to 46 µM; further: nearly all actives have a fitted effect of over 35% in size
Records with an inconclusive call do not appear. Calls of active or inactive are those of the source. The call rests on the fitted dose curve; in most records, active means well fitted inhibition curve with a large enough effect; inconclusive means small, poorly fitted or top-dose-only effect; inactive means no such curve, though single readings can be large or run the other way.
Choose one outcome from this list and give only that: 1 (yes) (active), 0 (no) (inactive)

Completed entries (count: 4):
O=c1[nH]cnc2[nH]ncc12 ... 1 (yes)
COc1cc(N2CCN(C)CC2)ccc1Nc1nccc(-c2cn(C)c3cnccc23)n1 ... 1 (yes)
c1ccc(CNc2nc(NCc3ccccc3)c3ccccc3n2)cc1 ... 1 (yes)
COCCCN1CCC(NC(=O)c2cc(Cl)c(N)c3c2OCC3)CC1 ... 0 (no)

Attention now shifts to the item below.
Request: // return assay outcome for Cc1ccsc1C(=CCCN1CCC[C@@H](C(=O)O)C1)c1sccc1C
Result: 0 (no)
